Test: Photocytotoxicity against […] cells assessed as cell viability at 2.5 uM irradiated with 595 nm LED for 4 hrs measured after 24 hrs by MTT assay
Type: cell-based, NIH3T3
Conditions: read-out: Activity
Measured Attribute: viability at 24 h, 2.5 µM (%)
Provide the reading as a plain figure in %.

The recorded viability at 24 h, 2.5 µM for `NCCCOc1ccc2nc3ccc(=O)cc-3oc2c1I` is 70

====

System: MCF7
Test: Photocytotoxicity against human MCF-7 cells assessed as reduction in cell viability irradiated with 595 nm LED for 4 hrs measured after 24 hrs by MTT assay
Format: functional, cell-based
Details: MCF7, light or radiation study
Measured Attribute: IC50 (µM)
Report as a plain number; the unit µM is understood.

Record `NCCCOc1ccc2nc3ccc(=O)cc-3oc2c1I` , field IC50: 4
